# key: entry, value: CC50
- assay.info: in vitro
- condition.label: EBOV CC50
Use µM as the unit, but write only the number.

Illustrative cases are given below, each with its answer.
> print(dat)
                                    molecule  reported
 1        CCOC(=O)c1cnc2ccc(C)cc2c1NCc1ccco1      26.9
 2  COc1ccc2nc(C)cc(Nc3ccc(OCc4ccccc4Cl)cc3)c2c1      26.1
 3          Cc1ccc(Nc2cc(C)nc3ccc(C)cc23)cc1      35.2
 4        Cc1cc(NNC(=O)OCc2ccccc2)c2ccccc2n1      51.1
 5       CCOc1ccc2nc(C)cc(Nc3ccc(Cl)cc3)c2c1      21.2
 6        CCOC(=O)c1cnc2c(C)cccc2c1NCc1ccco1      49.1
 7   CCOC(=O)c1cnc2c(Cl)cc(Cl)cc2c1NCc1ccco1      44.1
 8     CCOC(=O)c1cnc2c(C)cc(C)cc2c1NCc1ccco1      37.2
 9  CCOC(=O)c1ccc2ncc(C(=O)OCC)c(NCCCOC(=O)C(Cl)(Cl)Cl)c2c1      60.5
10       Cc1cc(C)c2nc(C)cc(Nc3ccc(O)cc3)c2c1      39.3

INPUT: Which CC50 is reported for this compound? CCOC(=O)c1cnc2c(Cl)cccc2c1NCc1ccco1
OUTPUT: 48.3

INPUT: Which CC50 is reported for this compound? CCOC(=O)c1cnc2ccccc2c1NCc1ccco1
OUTPUT: 55.4

----------
# key: entry, value: inhibition at 25 µM
- Tested on: EBOV minigenome
- assay.info: microbe, parasite or virus in culture
- Assay type: cell-based, Ebola virus
- condition.label: Zaire ebolavirus, 24 h, read-out: EBOV Inh
Use % as the unit, but write only the number.

Illustrative cases are given below, each with its answer.
> print(dat)
                                  molecule  target.or.system  reported
1       CC(=O)c1cccc(Nc2cc(C)nc3ccccc23)c1   EBOV minigenome       -42
2  CCOc1ccc2nc(C)cc(Nc3ccc(OC)c(OC)c3)c2c1   EBOV minigenome      89.3
3            Cc1ccc2nc(C)cc(NCc3ccco3)c2c1   EBOV minigenome     -1.14
4    CCOC(=O)c1cnc2c(C)cc(C)cc2c1NCc1ccco1   EBOV minigenome      75.2

INPUT: Which inhibition at 25 µM is reported for this compound? CCOC(=O)c1cnc2c(Cl)cccc2c1NCc1ccco1
OUTPUT: 72.8

INPUT: Which inhibition at 25 µM is reported for this compound? Cc1cc(C)c2nc(C)cc(Nc3ccc(OCc4ccccc4)cc3)c2c1
OUTPUT: 99.6

----------
- assay.info: in vitro
- condition.label: RSV CC50
Threshold 50 µM. CC50 below it: Fulfilled. CC50 at it or above: Not fulfilled.

INPUT: # check: CC50 < 50 µM for Cc1ccc2nc3c(c(Nc4cccc(C(F)(F)F)c4)c2c1)CCC3
OUTPUT: Not fulfilled

----------
- assay.info: in vitro
- condition.label: EBOV CC50
# key: entry, value: CC50

Illustrative cases are given below, each with its answer.
> print(dat)
                                   molecule  property  reported
1  COc1ccc(Nc2cc(C)nc3ccccc23)cc1 [Compound 20]      CC50   ≥ 75 µM
2  CCOC(=O)c1cnc2ccc(OCC)cc2c1Nc1ccc(I)cc1 [Compound 32]      CC50   ≥ 75 µM

INPUT: Which CC50 is reported for this molecule? Cc1cc(Nc2cccc(Cl)c2C)c2cccc(C)c2n1 [Compound 65]
OUTPUT: ≥ 75 µM

INPUT: Which CC50 is reported for this molecule? CCOC(=O)c1cnc2ccc(F)cc2c1Nc1ccc(S(=O)(=O)Nc2nc(C)cc(C)n2)cc1 [Compound 74]
OUTPUT: ≥ 75 µM
